- Study System: glucose-6-phosphate dehydrogenase-6-phosphogluconolactonase (Plasmodium falciparum 3D7)
- Procedure Details: concentration-dependent PfGluPho enzyme inhibition – biochemical, fluorescence intensity, dose response (AID 504765)
- Study Conditions: Recombinant PfG6PD enzyme, fluorescence intensity (NADPH)
Active and inactive are the calls of the source. How the calls were made is not given here.
Property Name: IC50

The following molecules have reported results that may help.
>>> print(df.to_string())
                                   molecule       val
0  COc1cc(SSc2cc(OC)cc([N+](=O)[O-])c2N)c(N)c([N+](=O)[O-])c1    4.2 µM
1         Clc1ccc2nc(-c3ccc4c(c3)OCO4)cn2c1  inactive
2                     COc1cc(N)c2ncccc2c1SC  inactive
3  O=[N+]([O-])c1ccc(N/N=C/c2ccc(O)c(O)c2O)c(S(=O)(=O)N2CCOCC2)c1   8.74 µM

Problem: State recorded IC50 with glucose-6-phosphate dehydrogenase-6-phosphogluconolactonase (Plasmodium falciparum 3D7), entry COC(=O)CCC(=O)OC1(C)C(=O)C2=CN(C3CC3)C(c3ccc(OC)cc3)=CC2=C(Br)C1=O (stereo not given) , no comment.
Result: 2.46 µM

###

- Study System: glucose-6-phosphate dehydrogenase-6-phosphogluconolactonase (Plasmodium falciparum 3D7)
- Procedure Details: concentration-dependent PfGluPho enzyme inhibition – biochemical, fluorescence intensity, dose response (AID 504765)
- Study Conditions: Recombinant PfG6PD enzyme, fluorescence intensity (NADPH)
Calls of active or inactive are those of the source. The rule behind the calls is not given here.
Hi there, use one of these labels in your reply, thanks! y = active, n = inactive

A selection of reference data follows.
>>> print(df.to_string())
                               input_smiles  category_label
0      c1ccc(OCc2nnc3n2N=C(c2ccccc2)CS3)cc1               y
1  CC(=O)c1cccc(NC(=O)c2cnn(-c3ccccc3)c2C)c1               y

Problem: Hello, I am checking results. What call was entered for C=CCOc1c(Cl)cc(CNc2ccc3[nH]c(=O)[nH]c3c2)cc1OC ?
Result: y

Problem: Please share the test call associated with CC1(C)Nc2ccc(O)cc2-c2c1ssc2=S .
Result: n

Problem: Could you check what this test reported for CN(CCO)c1cc(Sc2nc3ccccc3s2)c2nonc2c1[N+](=O)[O-] ?
Result: y

Problem: How was COc1cc(-c2cc(=O)c3c(O)c(OC)c(OC)c(O)c3o2)ccc1O classified in this test?
Result: y

Problem: For this compound, state the assay outcome: COc1cc(/C=C/C(=O)c2ccc([N+](=O)[O-])o2)ccc1O
Result: y

Problem: Short answer needed: outcome of this test for Cc1cc(C)c2c(=O)n(CC(=O)Nc3ccc(Cl)cc3)sc2n1 ?
Result: y

Problem: For CCOc1ccccc1NS(=O)(=O)c1c(C)noc1C , what call appears in the results of this test?
Result: y

Problem: Recorded test call requested for Cc1ccc(/C=C/C(=O)N2CCN(S(=O)(=O)c3ccc(C)c(C)c3)CC2)o1
Result: n

Problem: Assay outcome for CC(C)Cn1c([N+](=O)[O-])nc2c1c(=O)[nH]c(=O)n2C : what was it?
Result: y

###

- Study System: glucose-6-phosphate dehydrogenase-6-phosphogluconolactonase (Plasmodium falciparum 3D7)
- Procedure Details: concentration-dependent PfGluPho enzyme inhibition – biochemical, fluorescence intensity, dose response (AID 504765)
- Study Conditions: Recombinant PfG6PD enzyme, fluorescence intensity (NADPH)
Activity calls are given as the source filed them. No rule for the calls is given here.
I would appreciate it if you answered using one of these outcomes: active, inactive

The following molecules have reported results that may help.
>>> print(df.to_string())
                                molecule  category_label
0     CCN=c1scc(C)n1/N=C/c1ccc(O)c(O)c1O          active
1  OCCN1CCN(C(=S)c2ccc(-c3ccccc3)cc2)CC1          active
2     [O-]/[N+](=C/c1cccnc1)c1ccc(Br)cc1          active
3                  COc1cc(N)c2ncccc2c1OC          active
4    CC(=O)Nc1ccc2sn(-c3ccccc3)c(=O)c2c1          active

Problem: Recorded test call requested for COc1cccc(CNc2ccc3[nH]c(=O)[nH]c3c2)c1OCc1ccc(F)cc1
Result: inactive

Problem: Entry COc1ccc(Nc2cc(C)c3c(O)cccc3n2)cc1 : call = ?
Result: active

Problem: Check the results log: what was the call for CCN1CCCC1CNC(=O)c1ccc2c(c1)NC(=O)/C(=C\c1ccccc1F)S2 (configuration not stated) ?
Result: active

Problem: Please state the recorded outcome for this molecule: CCn1c(N)c(C(=O)NC)sc1=S
Result: inactive

Problem: Which outcome was entered for the molecule O=C1C(=Cc2cccc(O)c2O)SC(=S)N1CCCN1CCOCC1 in this test?
Result: active

Problem: Field: outcome | Entry: Cc1cc(C)c2c(=O)n(CC(=O)Nc3cccc(F)c3)sc2n1
Result: active

Problem: Lab log entry: Cc1cc(=O)[nH]c(N/N=C/c2c(C)nn(-c3ccccc3)c2Cl)n1 — outcome as called in the assay?
Result: active

###

- Study System: glucose-6-phosphate dehydrogenase-6-phosphogluconolactonase (Plasmodium falciparum 3D7)
- Procedure Details: concentration-dependent PfGluPho enzyme inhibition – biochemical, fluorescence intensity, dose response (AID 504765)
- Study Conditions: Recombinant PfG6PD enzyme, fluorescence intensity (NADPH)
The source made the active and inactive calls. No rule for the calls is given here.
Return exactly one item of active, inactive

Problem: State the result this test recorded for O=c1[nH]nc(CNc2ccc(O)cc2)c2ccccc12 .
Result: inactive

Problem: What did the test return for CCC(=O)OCOc1ccc(/C=C2/CCC(CN(C)C)C2=O)cc1 (stereo unspecified) ?
Result: active

Problem: Outcome? COc1cc(NCc2ccccc2O)c2ncccc2c1
Result: inactive

Problem: Check the results log: what was the call for Nc1[nH]c(=O)[nH]c(=O)c1N=Cc1ccccc1 ?
Result: active

Problem: Tell me the assay call for Cc1cc(N=NC(=O)c2ccccc2O)c2ccccc2c1O please.
Result: inactive

Problem: Tell me the recorded outcome of this test for CCc1ccc(OCC(=O)N/N=C/c2cc([N+](=O)[O-])ccc2N2CCOCC2)cc1 .
Result: active

Problem: Assay outcome for Cc1ccc(-c2csc(NC(=O)c3ccc(Br)cc3)c2C(=O)O)cc1 : what was it?
Result: active

Problem: Identify the outcome logged in this assay for the molecule shown: CN1C(=O)CSc2ccc(NC(=O)N3CCc4ccccc43)cc21
Result: active

Problem: // return assay outcome for N#Cc1ccc2sn(-c3ccccc3)c(=O)c2c1
Result: active

Problem: Which outcome was entered for the molecule NC1CCc2cc(O)c(O)cc2C1 (stereo unspecified) in this test?
Result: inactive

Problem: Fill in: this test's call for O=C(Sc1n[nH]c(=O)[nH]c1=O)c1ccccc1 is ___
Result: active

Problem: Please indicate how the test categorized Cc1ccccc1OCC(=O)N/N=C/c1ccc(Sc2nc3ccccc3s2)o1 .
Result: active

Problem: Identify the outcome logged in this assay for the molecule shown: COc1cc(CNc2ccc(N3CCCC3)cc2)ccc1OCc1ccccc1F
Result: active

Problem: Hi, do you know how N#CC1=C(N)Oc2c(O)cc3ccccc3c2C1c1ccsc1 (stereo unspecified) came out in this test?
Result: active

Problem: Check the results log: what was the call for O=C(Cn1sc2ccccc2c1=O)NC12CC3CC(CC(C3)C1)C2 ?
Result: active

Problem: # fetch the recorded call for Cc1ccc(-c2c(C(=O)N/N=C/c3ccsc3)nnn2-c2nonc2N)cc1 here
Result: inactive

Problem: Which outcome was assigned to COc1cc(C(=O)ON=C2C=C(C)C(=O)C(C)=C2)cc(OC)c1OC in this test?
Result: active

###

- Study System: glucose-6-phosphate dehydrogenase-6-phosphogluconolactonase (Plasmodium falciparum 3D7)
- Procedure Details: concentration-dependent PfGluPho enzyme inhibition – biochemical, fluorescence intensity, dose response (AID 504765)
- Study Conditions: Recombinant PfG6PD enzyme, fluorescence intensity (NADPH)
Activity calls are given as the source filed them. How the calls were made is not given here.
Property Name: IC50

Use the examples below as a reference point.
>>> print(df.to_string())
                                   compound      val
0             COc1cc(N=c2ssnc2Cl)cc(OC)c1OC  15.5 µM
1       O=S(=O)(Nc1c(O)ccc2ccccc12)c1ccccc1  4.49 µM
2  NS(=O)(=O)c1ccc(N/N=C/c2ccc(O)c(O)c2O)c([N+](=O)[O-])c1   5.7 µM
3  O=C1/C(=C\c2ccc([N+](=O)[O-])cc2)CS(=O)(=O)C/C1=C/c1ccc([N+](=O)[O-])cc1  2.95 µM
4  O=C1Nc2ccccc2C(=O)C1(Cl)Cc1ccccc1 (configuration not stated)  9.57 µM
5  Cn1c(=O)[nH]c(=O)c2c1nc([N+](=O)[O-])n2Cc1ccccc1  3.16 µM

Would you mind giving IC50 for every compound in the list below?
1. CN1CCN(C(=O)c2sc(=S)n(-c3ccccc3)c2N)CC1
2. Cc1nnc(N/N=C/c2ccc(-c3ccccc3F)o2)n1N
3. CCC(C)c1ccccc1OCCn1ccnc1 (configuration not stated)
4. Fc1cccc(Cl)c1CNc1ccc(N2CCCC2)cc1
5. CCn1c2ccccc2c2nc3cc(S(=O)(=O)N4CCOCC4)ccc3nc21
6. Cc1ccc(/C=C/C(=O)Nc2ccc([N+](=O)[O-])c(NC(=O)/C=C/c3ccc(C)o3)c2)o1

Result:
["7.25 µM", "16.9 µM", "3.39 µM", "4.06 µM", "inactive", "4.84 µM"]

# per-item lookup of IC50; items listed below
1. CC1(OC(=O)C2CCCC2)C(=O)C=C2C=C(c3ccsc3)N(CCc3c[nH]c4ccccc34)C=C2C1=O (configuration not stated)
2. O=C(OCC(=O)c1ccc([N+](=O)[O-])cc1)/C(=C\c1ccc(Cl)cc1)NC(=O)c1ccccc1
3. Cc1cccc(C(=O)Nc2nnc(S(=O)(=O)N3CCCCCC3)s2)c1
4. CC(=O)Nc1cc(OC(C)=O)c2nonc2c1OC(C)=O
5. CC(SCC(=O)Nc1ccccc1)c1nc2ccccc2c(=O)[nH]1 (configuration not stated)
6. Cc1[nH]c2ccccc2c1/C=N/Nc1nncn1N
7. Cc1cc(O)c(C(C)C)cc1N=Cc1ccc(N(C)C)cc1

Result:
["4.97 µM", "inactive", "6.58 µM", "11.9 µM", "5.29 µM", "5.61 µM", "4.4 µM"]

Batch lookup, IC50 per entry.
1. O=C(Cc1ccccc1)NCC(=O)OCC(=O)c1ccc([N+](=O)[O-])cc1
2. COc1ccccc1N1C(=O)C=C(Sc2nc(C)cc(C)n2)C1=O
3. O=S(=O)(Nc1cccc2cccnc12)c1ccccc1

Result:
1. 10.6 µM
2. 7.18 µM
3. 7.08 µM
